Target of assay: Estrogen receptor (Homo sapiens, UniProt P03372)
Sequence (P03372 whole entry): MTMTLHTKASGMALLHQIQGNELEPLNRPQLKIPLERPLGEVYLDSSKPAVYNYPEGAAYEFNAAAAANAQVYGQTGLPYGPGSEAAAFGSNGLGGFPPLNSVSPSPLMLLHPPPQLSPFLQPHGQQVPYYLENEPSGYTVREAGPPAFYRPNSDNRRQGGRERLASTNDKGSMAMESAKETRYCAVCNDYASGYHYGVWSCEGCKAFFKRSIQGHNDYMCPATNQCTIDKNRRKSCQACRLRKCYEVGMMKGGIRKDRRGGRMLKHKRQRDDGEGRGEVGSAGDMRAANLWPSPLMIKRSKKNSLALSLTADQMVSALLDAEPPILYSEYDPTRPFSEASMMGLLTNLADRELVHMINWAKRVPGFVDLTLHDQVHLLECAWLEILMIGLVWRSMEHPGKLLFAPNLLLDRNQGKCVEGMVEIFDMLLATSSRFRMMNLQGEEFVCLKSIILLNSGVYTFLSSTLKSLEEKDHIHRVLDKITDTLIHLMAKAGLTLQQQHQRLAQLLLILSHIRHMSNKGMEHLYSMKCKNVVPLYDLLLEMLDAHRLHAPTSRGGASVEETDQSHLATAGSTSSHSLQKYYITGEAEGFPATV
Protocol description: Antagonist activity at ERalpha in human HEC1 cells assessed as inhibition of estrogen-induced transcriptional activity after 24 hrs by reporter gene assay
Assay type: functional, cell-based, HEC-1
Reported IC50 values are given for each entry in this list.
Quantity measured: IC50

CC(C)CCc1cc(NCC(C)C)nc(OCC(C)C)n1
6.9 µM
CC(C)CCc1cc(NCc2cccc3ccccc23)nc(NCc2cccc3ccccc23)n1
> 1000 µM
CC(C)CNc1cc(NCc2ccccc2)nc(NCC(C)C)n1
9.5 µM
C(=C\c1cc(OCc2ccccc2)nc(OCc2ccccc2)n1)/c1ccccc1
> 1000 µM
CC(C)COc1cc(OCC(C)C)nc(OCC(C)C)n1
> 1000 µM
c1ccc(CCc2cc(NCc3cccc4ccccc34)nc(NCc3cccc4ccccc34)n2)cc1
> 1000 µM

Source: ChEMBL document CHEMBL1140106
